Exercise: for every item that follows, state its recorded IC50.
- Procedure details: Cytotoxicity
- Type: cell-based
- Condition label: human, SK-MEL malignant melanoma cells

For Oc1ccc(/C=C/c2cccc(O)c2)cc1 [Compound 15, trans-3,4′-dihydroxystilbene] , what is its reported IC50? > 25 µg/mL

For CC(C)/C=C/c1c(O)cc(/C=C/c2ccc(O)cc2)cc1O , what is its reported IC50? > 25 µg/mL

For CC(C)(O)C(O)Cc1c(O)cc(/C=C/c2ccc(O)cc2)cc1O (centres unmarked) , what is its reported IC50? > 25 µg/mL

For COc1ccc(/C=C/c2cc(O)cc(O[C@@H]3O[C@H](CO)[C@@H](O)[C@H](O)[C@H]3O)c2)cc1O [Compound 23, rhapontin, reference compound] , what is its reported IC50? > 25 µg/mL

For CC1(C)C=Cc2c(O)cc(/C=C/c3ccc(O)cc3)cc2O1 , what is its reported IC50? 17.5 µg/mL

For CC(C)=CCc1c(O)cc(/C=C/c2ccc(O)cc2)cc1O , what is its reported IC50? 20 µg/mL

For CC(C)/C=C/c1c(O)cc(/C=C/c2ccccc2)cc1O , what is its reported IC50? > 25 µg/mL

For Oc1ccc(/C=C/c2cc(O)cc(O)c2)cc1 [Compound 24, resveratrol, reference compound] , what is its reported IC50? > 25 µg/mL

###

Exercise: for every item that follows, state its recorded IC50.
- Procedure details: Cytotoxicity
- Assay type: cell-based
- Condition label: African green monkey, Vero kidney fibroblasts

For COc1cccc2c1C(=O)c1c(O)c3c(c(O)c1C2=O)C[C@@](O)(C(=O)CO)C[C@@H]3O[C@H]1C[C@H](N)[C@H](O)[C@H](C)O1 [Doxorubicin, reference compound] , what is its reported IC50? > 5 mg/L

For COc1cc(/C=C/c2ccccc2)cc(OC)c1 , what is its reported IC50? > 25 mg/L

For Oc1cccc(CCc2ccccc2)c1 , what is its reported IC50? > 25 mg/L

For Oc1ccc(/C=C/c2cccc(O)c2)cc1 [Compound 15, trans-3,4′-dihydroxystilbene] , what is its reported IC50? 19.5 mg/L

###

- Procedure details: Cytotoxicity towards HL-60 cells in the antioxidant assay
- Assay type: cell-based
- Condition label: human, HL-60 promyelocytic leukemia cells
Parameter measured: IC50

For CC(C)/C=C/c1c(O)cc(/C=C/C2=CC(=O)OC2CC(=O)O)cc1O (stereo not shown) , what is its reported IC50? > 25 µg/mL

For CC(C)/C=C/c1c(O)cc(/C=C/c2ccc(O)cc2)cc1O , what is its reported IC50? > 25 µg/mL

For CC(C)(O)C(O)Cc1c(O)cc(/C=C/c2ccccc2)cc1O (stereo not shown) , what is its reported IC50? > 31.3 µg/mL

For CC(C)(O)C(O)Cc1c(O)cc(/C=C/c2ccc(O)cc2)cc1O (stereo not shown) , what is its reported IC50? > 25 µg/mL

For COc1cc(/C=C/c2ccccc2)cc(OC)c1 , what is its reported IC50? > 25 µg/mL

For CC(C)(O)C(O)Cc1cc(/C=C/c2cc(O)cc(O)c2)ccc1O (stereo not shown) , what is its reported IC50? > 25 µg/mL

For Oc1ccc(/C=C/c2ccccc2)cc1O , what is its reported IC50? > 25 µg/mL

Sourced from paper PMC3063522
